FYI, the data here is from paper PMC10716038.

- TARGET ENTITY: T1, THD1 Y395A (UniProt P26039 1-405, Y395A)
- T1 construct: talin-1 (TLN1) head domain, residues 1-405, Y395A; source: E. coli (DE3) Rosetta 2, purified (IMAC, SEC); not shown: His10-SUMO, N-terminal, cleaved
- T1 sequence (P26039 1-405 Y395A): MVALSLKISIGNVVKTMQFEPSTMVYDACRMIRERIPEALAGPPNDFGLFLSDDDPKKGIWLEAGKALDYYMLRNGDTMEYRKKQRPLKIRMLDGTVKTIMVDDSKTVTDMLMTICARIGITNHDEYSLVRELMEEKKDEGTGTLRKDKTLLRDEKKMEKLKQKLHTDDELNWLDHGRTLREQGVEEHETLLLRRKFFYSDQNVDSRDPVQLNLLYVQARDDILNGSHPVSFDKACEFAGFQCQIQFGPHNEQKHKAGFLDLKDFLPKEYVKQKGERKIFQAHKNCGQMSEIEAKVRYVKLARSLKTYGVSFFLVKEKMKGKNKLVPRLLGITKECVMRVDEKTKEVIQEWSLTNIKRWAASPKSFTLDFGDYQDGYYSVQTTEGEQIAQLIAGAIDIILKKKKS
- METHOD DESCRIPTION: MST; apparent; THD1 or THD1 mutants titrated to 488–β3-CT in the presence of 30-40 µM KIND2; MST buffer
- CONDITION NOTES: both partners purified
No end group written: not given here.
RECORDED METRIC: Kd (µM)
Answers are plain numbers, in µM.

Inquiry: Kd lookup needed for {ATTO 488}-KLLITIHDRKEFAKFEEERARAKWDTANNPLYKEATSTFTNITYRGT (peptide, UniProt O54890 741-787, looked up, integrin β3 cytoplasmic tail (β3-CT); source: synthetic peptide (MPIB Core Facility)) [ATTO 488-labeled integrin β3 cytoplasmic tail (488–β3-CT)] , thanks.
Reply text: 42
